Answer each item with its documented IC50.
System Under Test: CES1b (Homo sapiens)
Construct: purchased Corning Incorporated (Corning, NY); host or cells: baculovirus-infected insect cells (microsomal fraction, Supersomes)
Sequence (P23141 18-567): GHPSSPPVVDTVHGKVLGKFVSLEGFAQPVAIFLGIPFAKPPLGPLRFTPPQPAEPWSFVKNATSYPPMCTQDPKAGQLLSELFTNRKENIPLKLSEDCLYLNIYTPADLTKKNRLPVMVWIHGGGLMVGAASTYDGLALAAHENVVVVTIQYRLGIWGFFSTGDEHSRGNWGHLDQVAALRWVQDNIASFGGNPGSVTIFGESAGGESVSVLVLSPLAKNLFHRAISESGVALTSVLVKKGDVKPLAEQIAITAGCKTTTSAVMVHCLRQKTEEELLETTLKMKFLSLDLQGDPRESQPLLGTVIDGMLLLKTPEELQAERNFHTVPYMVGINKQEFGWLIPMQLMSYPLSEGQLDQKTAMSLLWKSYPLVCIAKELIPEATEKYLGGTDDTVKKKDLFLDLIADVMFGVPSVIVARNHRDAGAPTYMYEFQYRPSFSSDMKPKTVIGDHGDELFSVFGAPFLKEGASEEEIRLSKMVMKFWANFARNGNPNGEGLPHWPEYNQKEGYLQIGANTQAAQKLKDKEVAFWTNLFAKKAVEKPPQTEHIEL
Test Method Notes: CES1b-catalyzed hydrolysis of 4-NPA, inhibition by inhibitors
Assay type: biochemical
Cond: substrate 4-NPA; read-out: Inhibition (IC50) of enzyme activities, CES1b

[ask] Give the measured IC50 of O=[N+]([O-])c1ccc(OP(=O)(O)Oc2ccc([N+](=O)[O-])cc2)cc1 [BNPP, bis(4-nitrophenyl)phosphate] .
[reply] 750 nM

[ask] I'd like to know its IC50. The molecule in question is `Nc1nc2c(ncn2[C@@H]2O[C@H](COC(=O)NCCc3c[nH]c4ccccc34)[C@@H](O)[C@H]2O)c(=O)[nH]1`
[reply] > 100000 nM

Each recorded value in this set is attributed to paper PMC8370248.
